# Tested on: platelets (PLT)
# protocol details: Population pharmacodynamic model of platelet (PLT) dynamics
# Format: in vivo, children and young adults
# protocol conditions: Homo sapiens, Platelet, read-out: IC50 (half-saturation effect of palbociclib on the bone marrow)
property: IC50
Provide the measurement as a number trailed by its unit.

Exercise: Quick one: IC50 for CC(=O)c1c(C)c2cnc(Nc3ccc(N4CCNCC4)cn3)nc2n(C2CCCC2)c1=O [palbociclib] ?
Key: 559 nM

Taken from paper PMC11676693.
